Test system: colon 38 cells
Assay: In vitro antitumor test against colon 38 cells (MTT)
Format: cell-based
Settings: 72 h, concentration at which 50% of mouse colon 38 cells are inhibited, 3 days
observed property: IC50 (µg/mL)

The following compounds have reported results that may help.
# smiles structure, unit of measurement, IC50
rows = [
    ("O=C(c1ccc(S(=O)(=O)Nc2cccc3c(Cl)c[nH]c23)cc1)N1CCCC1", "µg/mL", 0.28),
    ("Nc1ccc(S(=O)(=O)Nc2cccc3c(Cl)c[nH]c23)cc1", "µg/mL", 0.23),
    ("CNC(=O)c1ccc(S(=O)(=O)Nc2cccc3c(Cl)c[nH]c23)cc1", "µg/mL", 0.15),
    ("CCS(=O)(=O)Nc1ccc(S(=O)(=O)Nc2cccc3c(Cl)c[nH]c23)cc1", "µg/mL", 0.42),
    ("N#Cc1ccc(S(=O)(=O)Nc2cccc3c(Cl)c[nH]c23)cc1", "µg/mL", 0.13),
]

[a] NS(=O)(=O)CCc1ccc(S(=O)(=O)Nc2cccc3c(Cl)c[nH]c23)cc1
[b] NC(=S)c1ccc(S(=O)(=O)Nc2cccc3c(Cl)c[nH]c23)cc1
Input: Select the item with the higher value of IC50 from the options a and b listed. Could you answer with the label of the item you picked?
Output: b
(b: 0.23 µg/mL, a: 0.14 µg/mL)

---

System: HCT116
Assay: animal or person
Conditions: Mus musculus, HCT-116, ip, 504 h; 50 mg/kg/day i.p., once a day for 4 days; nude mice; tumor weight on 21st day; read-out: Growth inhibition ratio
observed property: inhibition in vivo at 50 mg/kg (%)
Your answer should be a plain number; it is taken to be in %.

The following compounds have reported results that may help.
# compound, measured on, test result
measured = [
    ("CS(=O)(=O)Cc1ccc(S(=O)(=O)Nc2cccc3c(Cl)c[nH]c23)cc1 [Example 73]", "HCT116", 78),
    ("CC(C)Nc1ccc(S(=O)(=O)Nc2cccc3c(Cl)c[nH]c23)cn1 [Example 46]", "HCT116", 84),
    ("NS(=O)(=O)c1ccc(S(=O)(=O)Nc2cccc3c(Cl)c[nH]c23)cc1 [Example 19]", "HCT116", 88),
]

The reported inhibition in vivo at 50 mg/kg of the compound CS(=O)(=O)NCc1ccc(S(=O)(=O)Nc2cccc3c(Cl)c[nH]c23)cc1 [Example 53] was 86

The reported inhibition in vivo at 50 mg/kg of the compound Nc1ccc(S(=O)(=O)Nc2cccc3c(Cl)c[nH]c23)cn1 [Example 33] was 74

---

Tested on: colon 38 cells
Experiment: In vitro antitumor test against colon 38 cells (MTT)
Format: cell-based
Conditions: 72 h, concentration at which 50% of mouse colon 38 cells are inhibited, 3 days
observed property: IC50 (µg/mL)

[a] O=S(=O)(Nc1cccc2c(Cl)c[nH]c12)c1ccc(Cl)nc1
[b] Cc1c(Cl)cccc1S(=O)(=O)Nc1cccc2c(C#N)c[nH]c12
Input: I'm curious whether a or b has the smaller IC50 number. Which is it? Could you answer with the label of the item you picked?
Output: a
(a: 0.23 µg/mL, b: 0.44 µg/mL)

[A] N#Cc1c[nH]c2c(NS(=O)(=O)c3cccc(Cl)c3)cccc12
[B] C[S+]([O-])c1ccc(S(=O)(=O)Nc2cccc3c(Cl)c[nH]c23)cc1 (stereo not drawn)
Input: Select the item with the higher value of IC50 from the options A and B listed. Could you answer with the label of the item you picked?
Output: A

[1] N#Cc1c[nH]c2c(NS(=O)(=O)c3ccc(Cl)nc3)cccc12
[2] CS(=O)(=O)NCCc1ccc(S(=O)(=O)Nc2cccc3c(Cl)c[nH]c23)cc1
Input: Select the item with the higher value of IC50 from the options 1 and 2 listed. Could you answer with the label of the item you picked?
Output: 2

[A] NS(=O)(=O)c1ccc(S(=O)(=O)Nc2ccc(Cl)c3c(Cl)c[nH]c23)cc1
[B] CC(=O)c1ccc(S(=O)(=O)Nc2cccc3c(C#N)c[nH]c23)cc1
Input: I'm curious whether A or B has the smaller IC50 number. Which is it? Could you answer with the label of the item you picked?
Output: A
(A: 0.12 µg/mL, B: 0.25 µg/mL)

[1] CSc1ccc(S(=O)(=O)Nc2cccc3c(Cl)c[nH]c23)cc1
[2] NS(=O)(=O)Cc1ccc(S(=O)(=O)Nc2cccc3c(Cl)c[nH]c23)cc1
[3] N#Cc1c[nH]c2c(NS(=O)(=O)c3ccc(N)nc3)cccc12
[4] CONS(=O)(=O)c1ccc(S(=O)(=O)Nc2cccc3c(Cl)c[nH]c23)cc1
Input: # rank_down: sort by IC50, max first Hello, could you send the labels back in the order asked? Thank you.
Output: 1, 4, 3, 2
(1: 0.69 µg/mL, 4: 0.47 µg/mL, 3: 0.19 µg/mL, 2: 0.12 µg/mL)

[I] O=S(=O)(Nc1cccc2c(Cl)c[nH]c12)c1ccc(S)nc1
[II] Nc1ccc(S(=O)(=O)Nc2ccc(Cl)c3c(Cl)c[nH]c23)cc1
[III] CN(CCc1ccc(S(=O)(=O)Nc2cccc3c(Cl)c[nH]c23)cc1)S(C)(=O)=O
Input: # rank_down: sort by IC50, max first Hello, could you send the labels back in the order asked? Thank you.
Output: I, III, II

Data provenance is patent US5721246A.
